- ASSAYED SYSTEM: Calmodulin-sensitive adenylate cyclase (Bacillus anthracis)
- Sequence (P40136 whole entry): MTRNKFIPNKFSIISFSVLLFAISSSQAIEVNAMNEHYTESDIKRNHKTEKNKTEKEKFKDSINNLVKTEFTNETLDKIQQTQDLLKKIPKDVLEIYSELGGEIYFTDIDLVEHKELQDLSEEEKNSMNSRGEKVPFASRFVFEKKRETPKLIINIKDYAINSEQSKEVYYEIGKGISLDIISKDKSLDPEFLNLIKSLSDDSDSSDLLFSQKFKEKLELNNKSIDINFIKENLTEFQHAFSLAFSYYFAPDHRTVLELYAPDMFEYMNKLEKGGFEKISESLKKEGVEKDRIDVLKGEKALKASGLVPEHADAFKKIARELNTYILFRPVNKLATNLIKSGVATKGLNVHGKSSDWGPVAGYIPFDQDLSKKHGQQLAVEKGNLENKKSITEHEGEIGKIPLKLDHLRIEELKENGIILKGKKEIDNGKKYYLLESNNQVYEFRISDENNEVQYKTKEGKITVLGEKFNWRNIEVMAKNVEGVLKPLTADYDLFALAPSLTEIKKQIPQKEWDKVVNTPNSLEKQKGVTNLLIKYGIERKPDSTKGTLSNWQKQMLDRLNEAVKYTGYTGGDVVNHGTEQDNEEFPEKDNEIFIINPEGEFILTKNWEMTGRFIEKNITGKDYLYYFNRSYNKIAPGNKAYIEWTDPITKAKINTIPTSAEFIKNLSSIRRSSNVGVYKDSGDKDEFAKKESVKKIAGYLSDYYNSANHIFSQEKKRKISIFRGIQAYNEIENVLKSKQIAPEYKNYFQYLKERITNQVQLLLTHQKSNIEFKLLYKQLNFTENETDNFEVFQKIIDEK
- ASSAY OVERVIEW: Inhibition of Bacillus anthracis edema factor-induced cAMP secretion in mouse RAW264.7 cells after 4 hrs by ELISA
- Assay type: cell-based
ENDPOINT: IC50

1. O=C(O)c1cccc(NC(=O)c2cccc3c2C(=O)c2ccccc2-3)c1: 1830 nM
2. O=C(O)c1ccc(/N=C/c2c3ccccc3cc3ccccc23)cc1O: 8500 nM
3. COc1cccc([C@H]2Nc3ccc(C(=O)O)cc3[C@@H]3C=CC[C@H]23)c1: 1730 nM
